test system: L6; assay: Upregulation of GLUT4 expression in insulin resistant myotube differentiated rat L6 cells at 1 to 2 uM incubated for 24 hrs by qRT-PCR analysis; type: functional, cell-based; details: dose 1-2 µM
The source made the active and inactive calls. No cut-off for these calls is given here.
reportedProperty: Activity

{"compound": "Cc1ccc(S(=O)(=O)NC(=O)N[C@H]2C(O)O[C@H](CO)[C@@H](O)[C@@H]2O)cc1 (stereo partly specified)", "recordedMeasurement": "Active"}
{"compound": "CC(=O)OC[C@H]1OC(OC(C)=O)[C@H](NC(=O)NS(=O)(=O)c2ccccc2)[C@@H](OC(C)=O)[C@@H]1OC(C)=O (stereo partly specified)", "recordedMeasurement": "Active"}
{"compound": "CC(=O)OC[C@H]1OC(OC(C)=O)[C@H](NC(=O)NS(=O)(=O)c2ccc(Cl)cc2)[C@@H](OC(C)=O)[C@@H]1OC(C)=O (stereo partly specified)", "recordedMeasurement": "Active"}
{"compound": "O=C(N[C@H]1C(O)O[C@H](CO)[C@@H](O)[C@@H]1O)NS(=O)(=O)c1ccccc1 (stereo partly specified)", "recordedMeasurement": "Active"}
{"compound": "O=C(N[C@H]1C(O)O[C@H](CO)[C@@H](O)[C@@H]1O)NS(=O)(=O)c1ccc(Cl)cc1 (stereo partly specified)", "recordedMeasurement": "Active"}
{"compound": "CC(=O)OC[C@H]1OC(OC(C)=O)[C@H](NC(=O)NS(=O)(=O)c2ccc(C)cc2)[C@@H](OC(C)=O)[C@@H]1OC(C)=O (stereo partly specified)", "recordedMeasurement": "Active"}

Where do the numbers come from? From ChEMBL document CHEMBL5376017.
